# measured_target: Calcium sensing receptor (hCaSR) (Homo sapiens, UniProt P41180)
# Sequence (P41180 20-1078): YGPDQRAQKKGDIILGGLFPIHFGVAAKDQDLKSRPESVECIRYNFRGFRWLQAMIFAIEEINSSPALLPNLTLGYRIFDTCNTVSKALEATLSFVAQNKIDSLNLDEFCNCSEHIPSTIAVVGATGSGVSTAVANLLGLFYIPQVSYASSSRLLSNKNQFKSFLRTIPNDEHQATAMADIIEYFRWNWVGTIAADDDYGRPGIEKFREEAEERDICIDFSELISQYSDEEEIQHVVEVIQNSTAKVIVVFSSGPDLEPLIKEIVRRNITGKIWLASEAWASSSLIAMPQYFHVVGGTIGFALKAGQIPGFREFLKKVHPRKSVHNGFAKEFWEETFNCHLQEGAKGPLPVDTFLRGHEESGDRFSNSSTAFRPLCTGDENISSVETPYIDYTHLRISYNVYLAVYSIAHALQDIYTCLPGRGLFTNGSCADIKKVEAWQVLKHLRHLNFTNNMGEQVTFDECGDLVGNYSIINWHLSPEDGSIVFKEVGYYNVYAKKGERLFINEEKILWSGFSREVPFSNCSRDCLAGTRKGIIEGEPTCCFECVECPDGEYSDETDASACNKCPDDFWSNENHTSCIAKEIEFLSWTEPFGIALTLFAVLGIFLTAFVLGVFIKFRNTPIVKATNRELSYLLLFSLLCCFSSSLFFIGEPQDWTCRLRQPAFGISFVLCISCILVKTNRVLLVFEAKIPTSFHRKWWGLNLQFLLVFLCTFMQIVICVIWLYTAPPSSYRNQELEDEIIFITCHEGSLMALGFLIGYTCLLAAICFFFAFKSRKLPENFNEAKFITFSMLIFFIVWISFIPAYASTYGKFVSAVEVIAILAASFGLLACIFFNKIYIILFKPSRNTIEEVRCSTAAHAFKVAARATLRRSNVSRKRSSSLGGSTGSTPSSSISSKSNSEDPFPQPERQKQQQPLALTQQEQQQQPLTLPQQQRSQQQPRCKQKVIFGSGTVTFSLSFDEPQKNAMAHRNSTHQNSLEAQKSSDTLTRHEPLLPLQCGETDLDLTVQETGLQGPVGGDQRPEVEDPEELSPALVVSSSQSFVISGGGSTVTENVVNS
# measurement_notes: In-vitro assay of calcimimetics through modulation of calcium sensing receptor: increase in intracellular calcium [Ca2+]i, FLIPR
# experimental_setup: stably transfected HEK293 cells expressing hCaSR; Fluo4NW dye; 0.3 mM CaCl2; 8-point assay; read-out: EC50 Range
pEC50: −log10 of the molar value. Counter-ions that a name gives are not always drawn.
pEC50 overview

Worked examples, 3 compounds total:
COC(=O)c1ccc(N2CC(CN[C@H](C)c3cccc4ccccc34)Oc3ccccc32)cc1 (single isomer, unassigned) [Example 2b, hydrochloride]
7.30 to 7.70
Cc1ccc(N2CC(CCN[C@H](C)c3cccc4ccccc34)Oc3ccccc32)cc1C(=O)O (single isomer, unassigned) [Example 133b, hydrochloride]
> 7.70
C[C@@H](NCC1CN(c2ccc(O)c(C(=O)O)c2)c2ccccc2O1)c1cccc2ccccc12 (single isomer, unassigned) [Example 66a, hydrochloride]
7.30 to 7.70

Pending compound:
Noted for C[C@@H](NCCC1CN(c2ccc(OCC(=O)O)cc2)c2ccc(F)cc2O1)c1cccc2ccccc12 (single isomer, unassigned) [Example 161a, hydrochloride] : its pEC50 reads > 7.70
